Molecular target: T1, human TNFR1 (recombinant, R&D Systems cat no. 636-R1/CF, biotinylated) (human, UniProt P19438 30-211, limits assumed, biotinylated with EZ-Link NHS-LC-LC-biotin)
T1 construct: it is not tied to the BIAcore reagent; also called p55; hTNFR1
T1 sequence (looked up): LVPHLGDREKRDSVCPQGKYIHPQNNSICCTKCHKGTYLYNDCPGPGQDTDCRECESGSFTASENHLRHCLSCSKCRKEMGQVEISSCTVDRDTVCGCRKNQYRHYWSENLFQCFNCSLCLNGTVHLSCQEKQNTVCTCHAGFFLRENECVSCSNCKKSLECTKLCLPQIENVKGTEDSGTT
Test: BIAcore, TNFR1 (species not given, taken as human)
Here, each record is paired with measured pKd data.
FYI, pKd means -log10 of a concentration in mol per litre.

Here's what some known entries look like.
DMS0135 (bispecific antibody, anti-TNFR1 dAb / AlbudAb in-line fusion) EVQLLESGGGLVQPGGSLRLSCAASGFTFFKYSMGWVRQAPGKGLEWVSQISDTADRTYYSHSVKGRFTISRDNSKNTLYLQMNSLRAEDTAVYYCAIYTGRWVPFEYWGQGTLVTVSSASTDIQMTQSPSSLSASVGDRVTITCRASRPIGTTLSWYQQKPGKAPKLLILWNSRLQSGVPSRFSGSGSGTDFTLTISSLQPEDFATYYCAQAGTHPTTFGQGTKVEIKR : 9.49
DMS0132 (bispecific antibody, anti-TNFR1 dAb / AlbudAb in-line fusion) EVQLLESGGGLVQPGGSLRLSCAASGFTFVKYSMGWVRQAPGKGLEWVSQISDTADRTYYAHSVKGRFTISRDNSKNTLYLQMNSLRAEDTAVYYCAIYTGRWVPFEYWGQGTLVTVSSASTDIQMTQSPSSLSASVGDRVTITCRASRPIGTTLSWYQQKPGKAPKLLILWNSRLQSGVPSRFSGSGSGTDFTLTISSLQPEDFATYYCAQAGTHPTTFGQGTKVEIKR : 9.60
DMS0133 (bispecific antibody, anti-TNFR1 dAb / AlbudAb in-line fusion) EVQLLESGGGLVQPGGSLRLSCAASGFTFFKYSMGWVRQAPGKGLEWVSQISDTADRTYYAHSVKGRFTISRDNSKNTLYLQMNSLRAEDTAVYYCAIYTGRWAPFEYWGQGTLVTVSSASTDIQMTQSPSSLSASVGDRVTITCRASRPIGTTLSWYQQKPGKAPKLLILWNSRLQSGVPSRFSGSGSGTDFTLTISSLQPEDFATYYCAQAGTHPTTFGQGTKVEIKR : 9.70

Suppose we examine the binder DMS0134 (bispecific antibody, anti-TNFR1 dAb / AlbudAb in-line fusion) EVQLLESGGGLVQPGGSLRLSCAASGFTFFKYSMGWVRQAPGKGLEWVSQISDTADRTYYAHSVKGRFTISRDNSKNTLYLQMNSLRAEDTAVYYCAIYTGRWVPFEYWGQGTLVTVSSASTDIQMTQSPSSLSASVGDRVTITCRASRPIGTTLSWYQQKPGKAPKLLILWNSRLQSGVPSRFSGSGSGTDFTLTISSLQPEDFATYYCAQAGTHPTTFGQGTKVEIKR ; what pKd value has been reported?
9.59
